# System: MCF7
# assayOverview: Antiproliferative activity against human MCF7 cells after 48 hrs by SRB assay
# Type: functional, cell-based
# assayContext: MCF7, 48 h
pIC50: −log10 of the molar value.
outcomeMeasure: pIC50

{"chemSmiles": "O=C(CCCCCCN1C(=O)/C(=N\\O)c2cc([N+](=O)[O-])ccc21)NO", "outcomeMeasure": "pIC50", "numericResult": 5.87}
{"chemSmiles": "O=C(CCCCCCN1C(=O)/C(=N\\O)c2cc(Cl)ccc21)NO", "outcomeMeasure": "pIC50", "numericResult": 6.17}
{"chemSmiles": "O=C(CCCCCCN1C(=O)/C(=N\\O)c2ccccc21)NO", "outcomeMeasure": "pIC50", "numericResult": 6.10}
{"chemSmiles": "CO/N=C1\\C(=O)N(CCCCCCC(=O)NO)c2ccc([N+](=O)[O-])cc21", "outcomeMeasure": "pIC50", "numericResult": 6.03}
